We begin with a simple list: items and their reported half-life.
test: Half life was determined; format: ADME; conditions: rat
ASSAY_ENDPOINT: half-life

chemical_string=CC1(C)CC(NP(=O)(O)N(CCCl)CCCl)CC(C)(C)N1O result="34 min"
chemical_string=CC1(C)CC(NP(=O)(O)N(CCCl)CCCl)CC(C)(C)N1[O] result="51 min"
